- system: T1, Human polyclonal immunoglobulin G (IgG) (human)
- T1 construct: also called hIgG; IVIG
- assay.text: affinity chromatography, peptide resin, 10 mg/mL hIgG in PBS; 1st run, before any enzyme
*1 amine or outer side, *2 acyl side, *3 side chain or, on linkers, in order; H or OH if unused. Where no end group is shown, it is not given here. [ ]: non-standard residue; d: D form. Tyr(Me) = O-methyl-tyrosine, COc1ccc(C[C@H](N[*:1])C(=O)[*:2])cc1; Trp(1-Me) = Cn1cc(C[C@H](N)C(=O)O)c2ccccc21; Phe(4-Me) = Cc1ccc(C[C@H](N)C(=O)O)cc1; Lys(Me2) = CN(C)CCCC[C@H](N)C(=O)O; Cit = NC(=O)NCCC[C@H](N)C(=O)O
result.type: IgG yield (%)
State just the number; it will be interpreted in %.

Determine its reported IgG yield: HYFKFD-{Toyopearl AF‑Amino‑650M resin} (Synthetic hexapeptide on Toyopearl resin; also called HYFKFD-Toyopearl)
78

Determine its reported IgG yield: HFRRHL-{Toyopearl AF‑Amino‑650M resin} (Synthetic hexapeptide on Toyopearl resin; also called HFRRHL-Toyopearl)
93

Determine its reported IgG yield: H[Trp(1-Me)][Cit]G[Trp(1-Me)]V-{Toyopearl AF‑Amino‑650M resin} (Variant of HWRGWV on Toyopearl resin; also called HWMetCitGWMetV-Toyopearl) [HWMetCitGWMetV]
90

Determine its reported IgG yield: H[Phe(4-Me)][Cit][Cit]HL-{Toyopearl AF‑Amino‑650M resin} (Variant of HFRRHL on Toyopearl resin; also called HFMetCitCitHL-Toyopearl) [HFMetCitCitHL]
90

Determine its reported IgG yield: H[Tyr(Me)][Phe(4-Me)][Lys(Me2)][Phe(4-Me)]D-{Toyopearl AF‑Amino‑650M resin} (Variant of HYFKFD on Toyopearl resin, used as a negative control; also called HYMetFMetK(Met)2FMetD-Toyopearl) [HYMetFMetKMet2FMetD]
52

Determine its reported IgG yield: HWRGWV-{Toyopearl AF‑Amino‑650M resin} (not fully specified, Synthetic hexapeptide made directly on Toyopearl AF-Amino-650M resin after a first Fmoc-Ala-OH coupling, about 0.12 meq/g; also called HWRGWV-Toyopearl; original peptide ligand)
95

Origin of the recorded values: patent US10266566
